So I've got a bunch of compounds here, and I need their pEC50 values.
Test name: BODIPY-TR-cadaverine (BC) fluorescence displacement assay for LPS binding affinity
Run conditions: purified re-synthesized leads; half-maximal effective displacement of probe; 50 mM Tris buffer, pH 7.4; read-out: Binding affinity (BC displacement) ED50 value
One number for each entry, as −log10 of the molar value.

Give pEC50 for each listed item.
1. CCCCCCCCCCCCCCCCCCNCCC(=O)NCC(=O)NCCOCCN
2. CCCCCCCCCCCCCCCCCCNCC(=O)NCC(=O)NCCOCCN
3. CCCCCCCCCCCCCCCCCCNCCC(=O)NCC(=O)NCCCN
4. CCCCCCCCCCCCCCCCCCNCCCC(=O)NCCCCCN
5. CCCCCCCCCCCCCCCCCCNCCCC(=O)NCCOCCN
6. CCCCCCCCCCCCCCCCCCNCCCC(=O)NC(Cc1ccccc1)C(=O)NCCOCCN (stereo not shown)
7. CCCCCCCCCCCCCCCCCCNCC(=O)NCCCCCN

Data returned:
4.85
4.85
2.62
5.12
5.24
5.11
5.06

Provenance of the data: patent US7199267B1
